# credit: paper PMC7144934

# measuredTarget: Recombinant human IDO1 (rhIDO1) (Homo sapiens, UniProt P14902)
# Construct: made in house
# Sequence (P14902 whole entry): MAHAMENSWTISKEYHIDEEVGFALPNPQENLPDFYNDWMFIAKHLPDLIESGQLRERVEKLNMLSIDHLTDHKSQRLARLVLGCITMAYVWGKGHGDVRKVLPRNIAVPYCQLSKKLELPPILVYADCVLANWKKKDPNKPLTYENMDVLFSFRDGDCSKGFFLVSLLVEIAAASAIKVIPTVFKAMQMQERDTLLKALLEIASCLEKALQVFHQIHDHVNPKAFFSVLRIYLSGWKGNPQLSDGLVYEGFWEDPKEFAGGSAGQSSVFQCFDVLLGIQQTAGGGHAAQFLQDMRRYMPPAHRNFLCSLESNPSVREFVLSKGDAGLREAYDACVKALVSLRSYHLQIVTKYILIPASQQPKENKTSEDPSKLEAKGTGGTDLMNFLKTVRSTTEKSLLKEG
# assay: Enzyme assay for IDO1 inhibition
# Assay type: biochemical
# conditionsUsed: rhIDO1 enzyme assay
quantity: IDO1 inhibitory activity (in words)

CC1CC(C)CN(c2ccc(C(CC(=O)O)C(F)(F)F)cc2NC(=O)Cc2ccc(C#N)cc2)C1 (centres unmarked) = no inhibitory activity
CCCCNC(=O)Nc1cc(C(CC(=O)O)C(F)(F)F)ccc1N1CC(C)CC(C)C1 (centres unmarked) = loss of inhibition
CC1CC(C)CN(c2ccc(C(CC(=O)O)C(F)(F)F)cc2NC(=O)NC2CCCCC2)C1 (centres unmarked) = loss of inhibition
CC1CC(C)CN(c2ccc(C(CC(=O)O)C(F)(F)F)cc2NC(=O)Cc2ccc([N+](=O)[O-])cc2)C1 (centres unmarked) = no inhibitory activity

---

# assay: Single dose pharmacokinetic study in male C57BL/6 mice
# Type: in vivo
# conditionsUsed: male, C57BL/6, mouse, plasma, iv, 3 mg/kg, IV 3 mg/kg
quantity: AUC(0-inf)
Please state the number and follow it with the unit.

Query (compound): CC1CC(C)CN(c2ccc(C(CC(=O)O)C(F)(F)F)cc2NC(=O)Nc2ccc(C#N)cc2)C1 (stereo not shown) [i12] ; field requested: AUC(0-inf)
2160 ng·h/mL

---

# assay: Single dose pharmacokinetic study in male C57BL/6 mice
# Assay type: in vivo
# conditionsUsed: mouse, plasma, IV 3 mg/kg
# Experimental: The animal Care and Welfare Committee of Institute of Materia Medica, Chinese Academy of Medical Sciences approved all animal care, housing, and laboratory procedures. Male C57BL/6 mice were used in the single dose pharmacokinetic studies. […] The supernatant were analyzed by liquid chromatography/tandem mass spectrometry with a Zorbax C18 column (50 mm × 2.1 mm, 3.5 µm). […]
quantity: AUC(0-t) (ng·h/mL)
Answers are plain numbers, in ng·h/mL.

Query (compound): CC1CC(C)CN(c2ccc(C(CC(=O)O)C(F)(F)F)cc2NC(=O)Nc2ccc(C#N)cc2)C1 (stereo not shown) ; field requested: AUC(0-t)
1320

---

# assay: Single dose pharmacokinetic study in male C57BL/6 mice
# Format: in vivo
# conditionsUsed: mouse, plasma, PO 30 mg/kg
quantity: Tmax

Query (compound): CC1CC(C)CN(c2ccc(C(CC(=O)O)C(F)(F)F)cc2NC(=O)Nc2ccc(C#N)cc2)C1 (stereo not shown) ; field requested: Tmax
2 h

---

# assay: Single dose pharmacokinetic study in male C57BL/6 mice
# Type: in vivo
# conditionsUsed: mouse, plasma, IV 3 mg/kg, read-out: t1/2β (converted)
quantity: half-life (h)
Answers are plain numbers, in h.

Query (compound): CC1CC(C)CN(c2ccc(C(CC(=O)O)C(F)(F)F)cc2NC(=O)Nc2ccc(C#N)cc2)C1 (stereo not shown) [i12] ; field requested: half-life
7.17

---

# assay: Single dose pharmacokinetic study in male C57BL/6 mice
# Type: in vivo
# conditionsUsed: mouse, plasma, IV 3 mg/kg, read-out: Cl (plasma clearance)
quantity: clearance (mL/min/kg)
Numbers only, in mL/min/kg.

Query (compound): CC1CC(C)CN(c2ccc(C(CC(=O)O)C(F)(F)F)cc2NC(=O)Nc2ccc(C#N)cc2)C1 (stereo not shown) [i12] ; field requested: clearance
22.4

---

# assay: Single dose pharmacokinetic study in male C57BL/6 mice
# Type: in vivo
# conditionsUsed: mouse, plasma, IV 3 mg/kg, read-out: Vss
quantity: Vd (L/kg)
Numbers only, in L/kg.

Query (compound): CC1CC(C)CN(c2ccc(C(CC(=O)O)C(F)(F)F)cc2NC(=O)Nc2ccc(C#N)cc2)C1 (stereo not shown) ; field requested: Vd
15.8
